Kindly supply the reported IC50 values for the records listed here.
# Species: Mus musculus
# assay-info: In vitro inhibition of interleukin-2 (IL-2) production induced by stimulating lymphocytes derived from mouse spleens with the […]
# Type: functional
# stated-conditions: Spleen

>  <smiles-code>
C/C=C/C[C@@H](C)[C@@H](O)[C@H]1C(=O)N[C@@H](CC)C(=O)N(C)CC(=O)N(C)[C@@H](CC(C)C)C(=O)N[C@@H](C(C)C)C(=O)N(C)[C@@H](CC(C)C)C(=O)N[C@@H](C)C(=O)N[C@H](COCc2ccccc2)C(=O)N(C)[C@@H](CC(C)C)C(=O)N(C)[C@@H](CC(C)C)C(=O)N(C)[C@@H](C(C)C)C(=O)N1C

>  <IC50>
0.095 µg/mL

$$$$

Query molecule follows.
Quick one: give measured IC50 for `C=C(COC[C@H]1NC(=O)[C@H](C)NC(=O)[C@H](CC(C)C)N(C)C(=O)[C@H](C(C)C)NC(=O)[C@H](CC(C)C)N(C)C(=O)CN(C)C(=O)[C@H](CC)NC(=O)[C@H]([C@H](O)[C@H](C)C/C=C/C)N(C)C(=O)[C@H](C(C)C)N(C)C(=O)[C@H](CC(C)C)N(C)C(=O)[C@H](CC(C)C)N(C)C1=O)C(=O)OC`
0.1 µg/mL

---

# Species: Mus musculus
# assay-info: In vitro inhibition of interleukin-2 (IL-2) production induced by stimulating lymphocytes derived from mouse spleens with the […]
# Type: functional
# stated-conditions: Spleen
measurement-kind: IC50

>  <smiles-code>
C/C=C/C[C@@H](C)[C@@H](O)[C@H]1C(=O)N[C@@H](CC)C(=O)N(C)CC(=O)N(C)[C@@H](CC(C)C)C(=O)N[C@@H](C(C)C)C(=O)N(C)[C@@H](CC(C)C)C(=O)N[C@@H](C)C(=O)N[C@H](COCCC2OCCO2)C(=O)N(C)[C@@H](CC(C)C)C(=O)N(C)[C@@H](CC(C)C)C(=O)N(C)[C@@H](C(C)C)C(=O)N1C

>  <IC50>
0.086 µg/mL

$$$$
>  <smiles-code>
C/C=C/C[C@@H](C)[C@@H](O)[C@H]1C(=O)N[C@@H](CC)C(=O)N(C)CC(=O)N(C)[C@@H](CC(C)C)C(=O)N[C@@H](C(C)C)C(=O)N(C)[C@@H](CC(C)C)C(=O)N[C@@H](C)C(=O)N[C@H](CO)C(=O)N(C)[C@@H](CC(C)C)C(=O)N(C)[C@@H](CC(C)C)C(=O)N(C)[C@@H](C(C)C)C(=O)N1C

>  <IC50>
< 0.008 µg/mL

$$$$
>  <smiles-code>
C/C=C/C[C@@H](C)[C@@H](O)[C@H]1C(=O)N[C@@H](CC)C(=O)N(C)CC(=O)N(C)[C@@H](CC(C)C)C(=O)N[C@@H](C(C)C)C(=O)N(C)[C@@H](CC(C)C)C(=O)N[C@@H](C)C(=O)N2CC(=O)OC[C@@H]2C(=O)N(C)[C@@H](CC(C)C)C(=O)N(C)[C@@H](CC(C)C)C(=O)N(C)[C@@H](C(C)C)C(=O)N1C

>  <IC50>
0.024 µg/mL

$$$$

Provide IC50 value for the following molecule: `C/C=C/C[C@@H](C)[C@@H](O)[C@H]1C(=O)N[C@@H](CC)C(=O)N(C)CC(=O)N(C)[C@@H](CC(C)C)C(=O)N[C@@H](C(C)C)C(=O)N(C)[C@@H](CC(C)C)C(=O)N[C@@H](C)C(=O)N[C@H](COCCOC(C)=O)C(=O)N(C)[C@@H](CC(C)C)C(=O)N(C)[C@@H](CC(C)C)C(=O)N(C)[C@@H](C(C)C)C(=O)N1C`
0.012 µg/mL

Hello, the source for this data is ChEMBL document CHEMBL1128374, in case you need it.
